- experimentalProtocol: The maximum time for retention (50 mg/kg) administered orally in rat
- Format: ADME, organism-based
- conditionLabel: in vivo, po
observationType: Tmax (h)
Report only the number, with the unit h understood.

Query string: State, in one line, measured Tmax of CS(=O)(=O)O.Cc1c(O)cccc1C(=O)N[C@@H](CSc1ccccc1)[C@H](O)CN1C[C@H]2CCCC[C@H]2C[C@H]1C(=O)NC(C)(C)C [NELFINAVIR MESYLATE]
Result string: 2.82

* * *

- experimentalProtocol: Elimination rate constant of the compound(25 mg/kg) administered orally in marmoset
- Assay type: ADME, organism-based
- conditionLabel: callithrix, in vivo, po, read-out: T1/2 el (converted)
observationType: half-life (h)
Give the quantity in h, number only.

Query string: State its half-life for this compound: CS(=O)(=O)O.Cc1c(O)cccc1C(=O)N[C@@H](CSc1ccccc1)[C@H](O)CN1C[C@H]2CCCC[C@H]2C[C@H]1C(=O)NC(C)(C)C [NELFINAVIR MESYLATE]
Result string: 2.04
